Data origin, for the record: ChEMBL document CHEMBL1201862

Test system: INS1
assay-name: INS-1E survival protection against cytokine death – cell-based, luminescence, retest, dose response (AID 449756);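 further: cell death triggered by IL-1 beta plus TNF-alpha plus IFN-gamma mixture; protective hits raise ATP signal compared with cytokine alone wells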
Type: functional
experimental-setup: Rattus norvegicus, INS1
Calls of active or inactive are those of the source.
property-label: AC50

Reference set, count: 4
c1ccc(-c2nc(N3CCCCCC3)c3ccccc3n2)nc1 ... 1800 nM (active)
O=C(Nc1nc(-c2ccccn2)cs1)c1cccc(-n2cnnn2)c1 ... 1560 nM (active)
C/C(=N\NC(=O)c1ccccc1Cl)c1ccccn1 ... 1400 nM (active)
CC1CCC(C(C)C)C(OC(=O)Cn2c(-c3ccc(Br)cc3)[n+](C)c3ccccc32)C1 (stereo not given) ... 3630 nM (active)

Let's switch to this molecule now.
Endpoint output: AC50 of COc1ccc(CC(=O)Nc2nc(-c3ccc(F)c(F)c3)cs2)cc1OC . Value?
6650 nM (active)

====

Measured IC50, listed per entry.
study-target: Melanocortin receptor 4 (Homo sapiens)
Sequence (P32245 whole entry): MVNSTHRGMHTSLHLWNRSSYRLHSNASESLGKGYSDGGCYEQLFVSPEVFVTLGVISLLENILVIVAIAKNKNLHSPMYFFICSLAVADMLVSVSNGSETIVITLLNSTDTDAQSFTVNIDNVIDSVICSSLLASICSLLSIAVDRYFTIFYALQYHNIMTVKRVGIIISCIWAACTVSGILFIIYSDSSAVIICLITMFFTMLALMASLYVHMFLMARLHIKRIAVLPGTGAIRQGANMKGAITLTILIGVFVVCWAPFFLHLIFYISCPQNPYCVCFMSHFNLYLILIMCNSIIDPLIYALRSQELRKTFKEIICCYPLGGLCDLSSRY
assay-name: inhibitors of MC4R cAMP signaling – cell-based, TR-FRET, biased antagonists, dose response (AID 602298);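 further: antagonist potency against agonist-stimulated cAMP production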
Type: functional
Active and inactive are the calls of the source.

CN1CCN(C(=O)/C=C/c2cn(-c3ccccc3)nc2-c2ccc3c(c2)OCCO3)CC1 ... > 64.6 µM (inactive)

Endpoint output: IC50 of CCN(c1ccc(OCC(=O)OCC(=O)c2c(N)n(C)c(=O)n(C)c2=O)cc1)S(=O)(=O)c1ccccc1 . Value?
> 7.18 µM (active)

Endpoint output: IC50 of O=C(Nc1nc2cc(Cl)ccc2s1)C1CCCN(S(=O)(=O)c2cccc3cccnc23)C1 (centres undefined) . Value?
> 64.6 µM (inactive)

Endpoint output: IC50 of c1ccc(COc2ccc(-c3cc4nc(NCCN5CCOCC5)ccn4n3)cc2)cc1 . Value?
20 µM (inactive)

====

Measured EC50, listed per entry.
System: BJ
assay-name: BJ-TERT-LT-ST fibroblast viability loss – cell-based, RAS-independent, luminescence, dose response (AID 1935);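 further: BJ fibroblasts immortalized with TERT plus LT and ST oncogenes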
Type: functional
experimental-setup: Homo sapiens
The source made the active and inactive calls.

Reference set, count: 6
c1ccc(-c2nc(N3CCCCCC3)c3ccccc3n2)nc1 ... 50.7 µM (inconclusive)
CCCSc1ccc2nc(-c3ccccc3)cn2c1 ... > 150 µM (not active)
OC[C@H]1O[C@@H](n2cnc3c(NCCc4ccccc4)ncnc32)[C@H](O)[C@@H]1O ... > 150 µM (not active)
Cc1ccc(/C=N/NC(=O)c2cc(-c3ccncc3)nc3ccccc23)o1 ... 25.4 µM (active)
COc1ccc(N/C=C/C(=O)c2cc(OC)c(OC)c(OC)c2)cc1 ... 0.441 µM (inconclusive)
NC(=O)c1cn(C2OC(CO)C(O)C2O)c2ncnc(N)c12 (configuration not stated) ... 1.19 µM (inconclusive)

Let's switch to this compound now.
Endpoint output: EC50 of O=C1/C(=C/c2ccccc2Cl)SC(=S)N1CCC(=O)N1CCCCC1CCO (configuration not stated) . Value?
> 150 µM (not active)

====

study-target: Dual specificity tyrosine-phosphorylation-regulated kinase 1A (Rattus norvegicus)
Type: biochemical, Homo sapiens
Active and inactive are the calls of the source.
property-label: AC50

Reference set, count: 4
Cc1nc(N)sc1-c1csc(Nc2ccccc2)n1 ... 14.4 µM (active)
O=C(Nc1nc2ccc([N+](=O)[O-])cc2s1)C1CCCO1 (stereo not given) ... 0.577 µM (active)
COc1ccc2c(Cl)c(C(=O)NCc3ccco3)sc2c1 ... 0.273 µM (active)
CN(C)/C=N/c1nc(-c2ccc3c(c2)OCO3)cs1 ... 3.64 µM (active)

Let's switch to this molecule now.
Endpoint output: AC50 of CCOc1ccc(-c2ccc(SC)nn2)cc1 . Value?
20.8 µM (active)

====

study-target: Heat shock factor protein 1 (Mus musculus)
Sequence (P38532 whole entry): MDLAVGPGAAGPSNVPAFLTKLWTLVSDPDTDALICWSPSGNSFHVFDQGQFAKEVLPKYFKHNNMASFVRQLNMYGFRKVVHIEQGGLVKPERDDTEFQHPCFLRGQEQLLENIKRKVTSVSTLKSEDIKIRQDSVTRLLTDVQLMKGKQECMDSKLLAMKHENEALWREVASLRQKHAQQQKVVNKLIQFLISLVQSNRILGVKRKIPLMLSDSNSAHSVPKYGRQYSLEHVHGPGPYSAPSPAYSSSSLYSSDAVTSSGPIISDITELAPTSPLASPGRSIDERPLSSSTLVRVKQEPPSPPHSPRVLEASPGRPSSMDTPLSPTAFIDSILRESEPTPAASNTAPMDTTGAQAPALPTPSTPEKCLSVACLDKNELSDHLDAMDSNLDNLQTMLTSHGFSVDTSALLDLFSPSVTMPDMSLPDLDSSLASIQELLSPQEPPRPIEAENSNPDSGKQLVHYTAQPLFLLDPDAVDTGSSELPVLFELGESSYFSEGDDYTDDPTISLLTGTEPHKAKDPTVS
assay-name: enhancement of HSF1-driven luciferase signal – cell-based, NIH3T3, luminescence, dose retest, confirmation (AID 435004);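 further: stress induced by proteasome inhibitor MG132 added 30 min after compound; luciferase reporter driven by HSF1 response element in NIH3T3 cells; actives raise luminescence as potentiators of the MG132 stress response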
Format: functional
Activity calls are given as the source filed them.
Please reply with one of these outcomes: active, inactive

These recorded examples may help you get a feel for the data.
COc1ccc(S(=O)(=O)Nc2ccccc2C(F)(F)F)cc1 ... inactive
Cc1cc(C)c(S(=O)(=O)N2CCCC(C(=O)NCCC3=CCCCC3)C2)c(C)c1 (stereo not given) ... inactive
CCOC(=O)C1CCN(C(=O)c2ccc3c(Cl)c4c(nc3c2)CCCC4)CC1 ... active
COc1ccc(C2Nc3ccccc3C(=O)N2Cc2ccco2)cc1COc1ccc(F)cc1 (stereo not given) ... inactive
Cc1nn(-c2ccccc2)c2sc(C(=O)N(Cc3ccco3)C(C)C(=O)NC(C)(C)C)cc12 (stereo not given) ... inactive
CN(C)c1ccc(CNC(=O)c2ccc(CNc3c(N4CCCCC4)c(=O)c3=O)cc2)cc1 ... inactive
COC(=O)c1cc2c(ccn2-c2ccc(F)cc2)n1Cc1ccc(C#N)cc1 ... inactive
CCCn1c(SCc2nc(O)c3c(C)c(C)sc3n2)nc2ccccc2c1=O ... active

Look up the recorded call for N#CCc1c(C#N)c(N)nc(N2CCN(S(=O)(=O)c3ccccc3F)CC2)c1C#N in this test.
inactive

Look up the recorded call for O=C(Nc1cccc(Cl)c1)c1cc(S(=O)(=O)NCCc2ccc(Cl)cc2)ccc1F in this test.
inactive

====

study-target: Tyrosine-protein phosphatase non-receptor type 11 (Homo sapiens, UniProt Q06124)
Sequence (Q06124 whole entry): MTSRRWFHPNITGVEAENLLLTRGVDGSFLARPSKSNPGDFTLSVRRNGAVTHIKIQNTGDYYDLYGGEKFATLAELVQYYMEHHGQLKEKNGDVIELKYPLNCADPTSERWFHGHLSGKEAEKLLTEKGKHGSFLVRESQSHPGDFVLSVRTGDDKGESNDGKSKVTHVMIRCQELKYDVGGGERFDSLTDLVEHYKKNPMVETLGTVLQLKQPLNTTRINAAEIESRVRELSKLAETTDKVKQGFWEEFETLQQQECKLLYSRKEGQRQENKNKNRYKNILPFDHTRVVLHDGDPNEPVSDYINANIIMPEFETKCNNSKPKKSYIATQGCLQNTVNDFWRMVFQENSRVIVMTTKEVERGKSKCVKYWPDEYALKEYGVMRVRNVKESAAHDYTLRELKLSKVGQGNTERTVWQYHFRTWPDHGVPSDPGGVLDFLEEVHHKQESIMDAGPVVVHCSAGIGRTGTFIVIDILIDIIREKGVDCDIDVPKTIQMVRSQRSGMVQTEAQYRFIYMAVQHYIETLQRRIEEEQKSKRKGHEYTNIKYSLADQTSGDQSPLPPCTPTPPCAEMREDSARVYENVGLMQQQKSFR
assay-name: PTPN11 enzyme inhibitors – biochemical, selectivity assay for STEP inhibitor project, dose response (AID 602367)
Format: functional
experimental-setup: read-out: IC50_Mean
Calls of active or inactive are those of the source.
Measured IC50, listed per entry.

Endpoint output: IC50 of COc1ccc(-n2nc(C(=O)NCC(=O)Nc3ccccn3)c3ccccc3c2=O)cc1Cl . Value?
1.98 µM (active)

====

study-target: Large T antigen (Simian virus 40, UniProt P03070);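 further: Confirmatory-stage PubChem screen for compounds that inhibit SV40 T antigen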
Sequence (P03070 whole entry): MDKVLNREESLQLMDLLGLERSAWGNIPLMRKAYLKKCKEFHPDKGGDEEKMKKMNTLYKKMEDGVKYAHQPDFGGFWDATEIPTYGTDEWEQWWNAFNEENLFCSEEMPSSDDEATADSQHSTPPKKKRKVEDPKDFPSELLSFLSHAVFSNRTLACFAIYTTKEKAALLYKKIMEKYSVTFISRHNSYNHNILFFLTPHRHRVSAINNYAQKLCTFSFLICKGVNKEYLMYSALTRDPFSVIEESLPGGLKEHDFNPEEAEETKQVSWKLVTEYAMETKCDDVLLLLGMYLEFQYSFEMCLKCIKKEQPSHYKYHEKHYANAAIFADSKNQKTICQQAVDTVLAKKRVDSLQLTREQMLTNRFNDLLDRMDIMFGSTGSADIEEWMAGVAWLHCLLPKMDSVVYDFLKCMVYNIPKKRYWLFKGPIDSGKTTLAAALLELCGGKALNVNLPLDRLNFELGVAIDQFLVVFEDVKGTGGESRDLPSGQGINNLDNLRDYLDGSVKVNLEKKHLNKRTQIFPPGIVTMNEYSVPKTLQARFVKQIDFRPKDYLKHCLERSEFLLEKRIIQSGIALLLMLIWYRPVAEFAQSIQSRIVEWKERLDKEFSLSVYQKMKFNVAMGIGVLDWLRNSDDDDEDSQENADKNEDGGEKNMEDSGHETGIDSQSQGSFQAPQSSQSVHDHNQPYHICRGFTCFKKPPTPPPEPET
Format: functional, Betapolyomavirus macacae
Activity calls are given as the source filed them.
property-label: IC50

Reference set, count: 5
C/C(=N/NC(=O)CSc1nc2ccccc2n1C)c1ccc(O)cc1 ... 30.9 µM (active)
O=[N+]([O-])c1cc([N+](=O)[O-])c2cccnc2c1Oc1ccccc1O ... 7.81 µM (active)
CCOc1cc(/C=C2/NC(=O)N(CC(=O)OC)C2=O)ccc1O ... 12.5 µM (active)
O=C(O)c1cc(N2N=C(C(F)(F)F)/C(=C/C=C/c3ccco3)C2=O)ccc1Cl ... 4.47 µM (active)
C/C(CC(=O)Nc1ccc(N(C)C)cc1)=N\NC(=O)c1ccc([N+](=O)[O-])cc1Cl ... 9.88 µM (active)

Endpoint output: IC50 of CCOc1cc(/C=N\NC(=O)CC(=O)NCCc2ccccc2)ccc1O . Value?
7.94 µM (active)

Endpoint output: IC50 of Oc1ccc(O)c(-c2cnns2)c1 . Value?
10 µM (active)

Endpoint output: IC50 of Cc1nc(Cl)cc(N/N=C/c2ccc(O)cc2)n1 . Value?
8.13 µM (active)

Endpoint output: IC50 of O=C(c1cccc(-c2ccc(O)cc2)c1)N1CCOCC1 . Value?
10.2 µM (active)

Endpoint output: IC50 of COc1cc(/C=N\NC(=O)c2c(C)nc3cc(C)ccn23)ccc1O . Value?
13.4 µM (active)

====

Measured EC50, listed per entry.
assay-name: Luminescence Cell-Based Dose Response HTS to Identify Activators of Luciferase Translation or Activity in H4 […] Cells. [Related pubchem assays: 1829 (Project Summary), 1814 (Primary HTS)]
Type: functional
The source made the active and inactive calls.

Reference set, count: 2
Oc1ccc(Nc2nc(N3CCCC3)c3ccccc3n2)cc1 ... 12.9 µM (active)
Cc1ccc(Cn2ccnc2C(=O)Nc2ccccc2)cc1 ... 58 µM (active)

Let's switch to this molecule now.
Endpoint output: EC50 of Cc1cc(C)nc(Sc2ccc3nnnn3n2)n1 . Value?
22.5 µM (active)

====

Measured IC50, listed per entry.
study-target: Bifunctional protein GlmU (Mycobacterium tuberculosis, UniProt P9WMN3)
Sequence (P9WMN3 whole entry): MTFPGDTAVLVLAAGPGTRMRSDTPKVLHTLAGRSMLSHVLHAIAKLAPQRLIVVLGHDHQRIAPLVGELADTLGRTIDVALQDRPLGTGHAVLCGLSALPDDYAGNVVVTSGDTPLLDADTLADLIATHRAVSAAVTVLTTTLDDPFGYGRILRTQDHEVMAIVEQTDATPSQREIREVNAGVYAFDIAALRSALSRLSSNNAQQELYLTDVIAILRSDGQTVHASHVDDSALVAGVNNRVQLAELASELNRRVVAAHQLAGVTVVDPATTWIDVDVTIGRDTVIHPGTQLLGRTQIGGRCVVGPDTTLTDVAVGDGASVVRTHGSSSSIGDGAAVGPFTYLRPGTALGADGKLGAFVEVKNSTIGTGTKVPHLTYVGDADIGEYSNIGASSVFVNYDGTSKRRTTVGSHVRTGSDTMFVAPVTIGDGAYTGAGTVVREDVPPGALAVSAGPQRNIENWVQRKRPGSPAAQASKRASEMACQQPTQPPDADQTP
assay-name: Inhibitors of Mycobacterial Glucosamine-1-phosphate acetyl transferase (GlmU). Secondary screen.
Set-up: species or system Mycobacterium tuberculosis H37Rv
Calls of active or inactive are those of the source.

Reference set, count: 3
Cn1cnc([N+](=O)[O-])c1S(=O)(=O)c1ccc(Cl)cc1 ... 101 µM (active)
O=C(O)c1cc(N2N=C(C(F)(F)F)/C(=C/C=C/c3ccco3)C2=O)ccc1Cl ... 94.3 µM (active)
N#C/C(=C\c1ccc(-c2ccc(C(=O)O)cc2)o1)c1nc2ccccc2[nH]1 ... 51.3 µM (active)

Let's switch to this molecule now.
Endpoint output: IC50 of CC(=O)OCCNc1cc(Sc2nc3ccccc3[nH]2)c2nonc2c1[N+](=O)[O-] . Value?
116 µM (active)

====

Measured EC50, listed per entry.
study-target: Zinc finger protein mex-5 (Caenorhabditis elegans, UniProt Q9XUB2)
Sequence (Q9XUB2 whole entry): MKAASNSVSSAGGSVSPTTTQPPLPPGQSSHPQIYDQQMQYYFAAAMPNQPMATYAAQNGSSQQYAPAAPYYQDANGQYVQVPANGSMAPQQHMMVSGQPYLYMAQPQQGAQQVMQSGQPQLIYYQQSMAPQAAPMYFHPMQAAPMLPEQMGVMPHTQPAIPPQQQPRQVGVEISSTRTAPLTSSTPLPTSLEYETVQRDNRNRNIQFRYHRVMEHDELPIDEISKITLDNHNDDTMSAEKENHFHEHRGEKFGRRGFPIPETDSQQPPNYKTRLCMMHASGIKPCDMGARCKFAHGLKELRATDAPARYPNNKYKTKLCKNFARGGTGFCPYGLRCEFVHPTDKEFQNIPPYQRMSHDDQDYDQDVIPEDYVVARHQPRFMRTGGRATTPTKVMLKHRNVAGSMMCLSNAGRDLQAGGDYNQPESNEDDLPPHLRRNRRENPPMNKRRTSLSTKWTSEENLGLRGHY
assay-name: potency of MEX-5 RNA-binding blockers – biochemical, C. elegans, fluorescence polarization, dose response (AID 1960)
Calls of active or inactive are those of the source.

Reference set, count: 5
C=CCN1C(=O)NC(=O)/C(=C/C=C/Nc2ccccc2)C1=O ... > 300 µM (inconclusive)
O=C(/C=C/c1ccco1)NC(=S)Nc1cccc(C(=O)O)c1 ... 8.73 µM (active)
O=C(/C=C/c1ccc([N+](=O)[O-])o1)NNC(=O)c1ccc(F)cc1 ... 24.8 µM (active)
O=C(Cc1ccccc1)Nc1ccc(N2CCOCC2)cc1N1CCOCC1 ... > 300 µM (not active)
COc1cc(NCCCC(C)N)c2ncccc2c1 (stereo not given) ... 34.3 µM (active)

Endpoint output: EC50 of Cc1cc(C(=O)O)ccc1-n1c(C)cc(C=C2C(=O)c3ccccc3C2=O)c1C . Value?
> 300 µM (not active)

Endpoint output: EC50 of COC(=O)C1=C(C)N(c2ccc(Cl)cc2)/C(=C/c2cccs2)C1=O . Value?
> 300 µM (not active)

Endpoint output: EC50 of CCN(CC)CCN1C(=O)C(O)=C(C(=O)c2cc3cccc(OC)c3o2)C1c1ccc(F)cc1 (stereo not given) . Value?
> 300 µM (not active)

Endpoint output: EC50 of O=C(NNC(=O)c1ccccc1[N+](=O)[O-])c1csc(N2CCOCC2)n1 . Value?
0.731 µM (active)

Endpoint output: EC50 of CC(=C\c1ccco1)/C=C1/SC(=S)N(CC(=O)O)C1=O . Value?
> 300 µM (not active)

Endpoint output: EC50 of Oc1ccc(O)c(-c2cnns2)c1 . Value?
6.91 µM (active)

Endpoint output: EC50 of CC(C)N1CCc2c(sc(NC(=O)c3ccc(S(=O)(=O)N(C)CC4CCCO4)cc3)c2C(N)=O)C1 (stereo not given) . Value?
> 300 µM (not active)

Endpoint output: EC50 of COc1cc(C(=O)NC(c2ccccc2)c2ccccc2)cc(OC)c1C . Value?
> 300 µM (not active)

Endpoint output: EC50 of COc1ccc(CCN2C(=O)NC(=O)/C(=C\Nc3ccc(NC(C)=O)cc3)C2=O)cc1OC . Value?
> 300 µM (not active)

Endpoint output: EC50 of Cc1ccc2c(c1)C1C=CCC1C(C(=O)NCCCN1CCOCC1)N2 (stereo not given) . Value?
> 300 µM (not active)

Endpoint output: EC50 of CNCc1ccccc1Sc1ccc(O)c(O)c1 . Value?
22.6 µM (inconclusive)

Endpoint output: EC50 of Cc1cc(C)c(S(=O)(=O)Nc2cc(SCC(=O)O)c(O)c3ccccc23)cc1C . Value?
38.6 µM (active)

Endpoint output: EC50 of Cc1ccc(/C=C(\C#N)C(=O)Nc2c(C)cccc2C)s1 . Value?
> 300 µM (not active)

Endpoint output: EC50 of Cc1cc(/C=N/n2cnnc2)c(C)n1-c1cccc(C(=O)O)c1 . Value?
> 300 µM (not active)

Endpoint output: EC50 of O=C1C2CC=C(Cl)CC2C(=O)N1CC1Cc2ccccc2CO1 (stereo not given) . Value?
22 µM (active)
